This section presents molecules with their documented IC50 values.
# TESTED TARGET: Phosphatidylinositol 4,5-bisphosphate 3-kinase catalytic subunit delta isoform (Homo sapiens, UniProt O00329)
# Sequence (O00329 whole entry, canonical isoform): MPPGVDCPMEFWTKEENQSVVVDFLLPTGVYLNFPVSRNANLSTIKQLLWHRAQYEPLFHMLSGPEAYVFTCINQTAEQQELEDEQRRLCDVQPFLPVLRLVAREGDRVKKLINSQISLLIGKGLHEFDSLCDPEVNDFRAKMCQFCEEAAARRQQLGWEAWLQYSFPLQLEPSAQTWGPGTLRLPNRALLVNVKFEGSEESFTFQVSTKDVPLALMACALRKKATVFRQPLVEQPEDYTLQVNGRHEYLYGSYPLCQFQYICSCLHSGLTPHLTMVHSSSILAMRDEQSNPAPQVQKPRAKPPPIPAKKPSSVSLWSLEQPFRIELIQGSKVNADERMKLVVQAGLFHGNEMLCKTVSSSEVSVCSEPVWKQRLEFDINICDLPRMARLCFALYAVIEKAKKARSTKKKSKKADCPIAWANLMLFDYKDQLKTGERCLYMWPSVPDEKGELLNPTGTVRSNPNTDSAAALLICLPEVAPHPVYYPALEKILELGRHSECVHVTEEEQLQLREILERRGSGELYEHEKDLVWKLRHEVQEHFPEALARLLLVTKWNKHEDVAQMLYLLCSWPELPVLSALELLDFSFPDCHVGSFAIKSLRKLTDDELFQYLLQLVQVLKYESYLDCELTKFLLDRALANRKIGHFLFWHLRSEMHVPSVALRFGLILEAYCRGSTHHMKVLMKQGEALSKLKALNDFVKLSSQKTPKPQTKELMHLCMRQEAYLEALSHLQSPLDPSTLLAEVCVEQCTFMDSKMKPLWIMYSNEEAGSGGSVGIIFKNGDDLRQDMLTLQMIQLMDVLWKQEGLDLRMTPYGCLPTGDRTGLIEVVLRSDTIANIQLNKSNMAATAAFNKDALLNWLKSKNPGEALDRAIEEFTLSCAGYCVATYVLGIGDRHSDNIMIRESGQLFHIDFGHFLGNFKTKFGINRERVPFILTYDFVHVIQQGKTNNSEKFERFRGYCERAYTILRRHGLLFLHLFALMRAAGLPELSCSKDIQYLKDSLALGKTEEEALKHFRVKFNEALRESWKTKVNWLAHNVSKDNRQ
# ASSAY METHOD TEXT: Inhibition of human PI3Kdelta by fluorescence-based immunoassay

Answered cases to consult:
>  <SMILES DATA>
CCn1cc(C(=O)O)c(=O)c2cc(F)c(N3CCN(C(=O)c4ccc(OC)nc4)CC3)cc21

>  <IC50>
> 1 µM

$$$$
>  <SMILES DATA>
O=C(O)c1cn(C2CC2)c2cc(N3CCN(C(=O)c4cccnc4Cl)CC3)c(F)cc2c1=O

>  <IC50>
> 1 µM

$$$$

Consider the additional molecule presented here.
State its IC50 for this molecule: "CCn1cc(C(=O)O)c(=O)c2cc(F)c(N3CCN(C(=O)c4cccnc4Cl)CC3)cc21"
> 1 µM
